FYI, the data here is from patent US20170340735A1.

- Assayed Target: T1, recombinant monomeric human TIGIT-His (human, UniProt Q495A1 22-141)
- T1 construct: also called hTIGIT; not shown: His tag
- T1 sequence: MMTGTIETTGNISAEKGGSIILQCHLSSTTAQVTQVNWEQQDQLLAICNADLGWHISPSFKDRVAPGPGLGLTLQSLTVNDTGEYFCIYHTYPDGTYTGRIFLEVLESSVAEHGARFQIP
- Experiment: BLI (Octet QKe), antibody on AHC sensor, several concentrations of human TIGIT-His, 1:1 global fit, average
Readout: pKd
# pKd is unitless: minus log10 of the molar concentration; print number only

For the binder MAB16-IgG4 (antibody, V domains shown) VH: QVQLVQSGAEVKKPGASVKVSCKASGYTFREYYMHWVRQAPGQGLEWMGIINPSIGLTSYARKFQGRVTMTRDTSTSTVYMELSSLRSEDTAVYYCARGGRTTWIGALDIWGQGTMVTVSS VL: EIVMTQSPATLSVSPGERATLSCRASQSVSSNLAWYQQKPGQAPRLLIYGASTRATGIPARFSGSGSGTEFTLTISSLQSEDFAVYYCQQYVVWPPLTFGGGTKVEIKR , give its measured pKd value.
8.96
